System: SR
procedure-details: NCI tumour cell line growth inhibition, 48 h
Calls of active or inactive are those of the source. Rule as the data show it: active = GI50 up to about 1.1 µM and inactive = higher.
Choose one outcome from this list and give only that: t for active, f for inactive

Reference set, count: 10
{"columns": ["compound", "assigned-category"],
 "data": [
  ["c1ccc(CNCCCCNCCCNCc2ccccc2)cc1", "f"],
  ["Cc1ccc(N2C(=O)C(=O)N(/N=C3\\C(=O)Nc4ccccc43)C2=S)cc1", "f"],
  ["N=C(N)N/N=C(\\c1ccc(Cl)cc1)C1CC1", "f"],
  ["O=C(O)CCCCCNC(=O)CCC(CN(CC(=O)OCc1ccccc1)CC(=O)OCc1ccccc1)N(CC(=O)OCc1ccccc1)CC(=O)OCc1ccccc1 (stereo unspecified)", "f"],
  ["O=C(O)c1ccccc1/C=C1/Nc2ccccc2C1=O", "f"],
  ["O=C(O)CCSC1=NCCN1", "f"],
  ["O=C(CSc1nc(O)nc2[nH]cnc12)Nc1ccccc1", "f"],
  ["O=c1[nH]c(=O)n(C2OC(CO)C(O)C2O)cc1/N=N/NCc1ccccc1 (stereo unspecified)", "f"],
  ["CCNCCC1(CC)C(=O)NC(=O)NC1=O", "f"],
  ["O=[N+]([O-])c1ncc(N(CCO)CCO)s1", "f"]
]}

Query :: Outcome? CN1c2ccccc2C2c3c(O)ccc(O)c3C=C([N+](=O)[O-])C21 (stereo unspecified)
Result :: t

Query :: Query COC(=O)C1=C(O)C(C(=O)OC)[C@]2(O)[C@H](C(=O)OC)[C@H]1C[C@@H](c1ccc(Cl)cc1Cl)[C@H]2C(=O)OC (stereo partly specified) next
Result :: f

Query :: Query O=C1/C(=C\c2cccc(Oc3ccccc3)c2)S(=O)(=O)C(c2ccccc2)N1c1ccc(Cl)cc1 (stereo unspecified) next
Result :: f

Query :: Query "CCN(CCO)CCNc1ccc(C)c2sc3ccccc3c(=O)c12" next
Result :: f

Query :: Query COc1ccccc1NC1Oc2cc3c(cc2C(c2cc(OC)c(OC)c(OC)c2)C1C)OCO3 (stereo unspecified) next
Result :: t

Query :: Query COc1cccc2c1C(=O)c1c(O)c3c(c(O)c1C2=O)C[C@@](O)(C(=O)CO)CC3OC1CC(NCCCCC(OC(C)=O)OC(C)=O)C(O)C(C)O1 (stereo partly specified) next
Result :: t

Query :: Query CCOC(OCC)(OCC)C(Br)CC (stereo unspecified) next
Result :: f

Query :: Query "Clc1cccc(-c2sc(-c3ccsc3)cc2Cc2ccsc2)c1" next
Result :: f

Query :: Query "ClCCCCCc1c2nc(c(CCCCCCl)c3ccc([nH]3)c(CCCCCCl)c3nc(c(CCCCCCl)c4ccc1[nH]4)C=C3)C=C2" next
Result :: f

Query :: Query "CN(C)CCCN1c2ccccc2CCc2cccc([N+](=O)[O-])c21" next
Result :: f

Query :: Query "O=C(Cc1ccccc1)Nn1c(-c2ccccc2)nc2ccccc2c1=O" next
Result :: f

---

Tested on: KM-20L2
procedure-details: NCI tumour cell line growth inhibition, 48 h
Activity calls are given as the source filed them. Rule as the data show it: active = GI50 up to about 1.1 µM and inactive = higher.
Would you kindly list GI50 for each of these compounds?

Previously resolved entries follow.
{"columns": ["compound", "measured-endpoint", "meas-value"],
 "data": [
  ["O=P1(Oc2ccc(Cl)cc2Cl)Oc2ccc3ccccc3c2-c2c(ccc3ccccc23)O1", "GI50", "33.5 µM (inactive)"],
  ["O=C1C2CCN(CC2)C1CN1CCOCC1 (stereo unspecified)", "GI50", "18.2 µM (inactive)"],
  ["O=C1CC(c2ccccc2)NCN1 (stereo unspecified)", "GI50", "> 100 µM (inactive)"],
  ["c1ccc2c(c1)OCCOCCOc1ccccc1OCCO2", "GI50", "29.8 µM (inactive)"],
  ["CC(=O)OCC1OC(Nc2nc(O)n(C)c(=O)c2-c2csc(N)n2)C(OC(C)=O)C(OC(C)=O)C1OC(C)=O (stereo unspecified)", "GI50", "> 100 µM (inactive)"]
]}

Please look at the items below and tell me GI50 for each one, in order.
1. O=c1c2ccccc2sc2nc(O)nn12
2. CC(=O)OCc1ncccc1C(OC(C)=O)OC(C)=O
3. Nc1cc2c(cc1[N+](=O)[O-])[nH]c1c(-c3ccccc3)nccc12
4. CCN(CCO)CCNc1ccc(C)c2sc3ccccc3c(=O)c12
5. Cc1cc(=O)oc2c(C3=NN(C=O)C(c4ccccc4)C3)c(O)ccc12 (stereo unspecified)

Result ::
["> 100 µM (inactive)", "> 100 µM (inactive)", "23.6 µM (inactive)", "2.59 µM (inactive)", "> 100 µM (inactive)"]

Query :: Using the record for CC/C=C/c1cc2c(c3[nH]ccc13)[C@@H](C)CC2C.CC/C=C/c1cc2cc[nH]c2c2c1C(C)C[C@@H]2C.CCc1cc2c(c3[nH]ccc13)[C@@H](C)CC2C (stereo partly specified) , report its GI50.
Result :: 14.8 µM (inactive)
